- System: DNA Seq6 (DNA, single strand) TGAAGGAAGGT
- protocol.notes: fluorescence polarization
- assay.conditions: 100 mM NaCl, 1 mM MgCl2; 20 mM HEPES, 25 °C, 0.5 μM compound
endpoint.name: Kd (µM)

CN1CCN(c2cc(F)c3cc(-c4cccc(Cl)c4)c(=O)oc3c2)CC1: 18.7
Cc1cn2cc(-c3cc4ccc(N5CCN(CCNC(=O)OC(C)(C)C)[C@@H](C)C5)cc4oc3=O)nc2c(C)n1: 4.0
CN1CCN(c2ccc3cc(-c4cccc(Cl)c4)c(=O)oc3c2)CC1: 13.9
CN1CCN(c2cc(F)c3cc(-c4ccc(Cl)cc4)c(=O)oc3c2)CC1: 9.9

a = CN1CCN(c2ccc3cc(-c4ccc(Cl)cc4)c(=O)oc3c2)CC1
b = O=c1oc2cc(N3CCNCC3)ccc2cc1-c1cn2ccccc2n1
Input line: Quick check, higher Kd between a and b ? Could you answer with the label of the item you picked?
Output line: a
